tested on: OVCAR-8 ovarian; assay: NCI-60 one-dose screen, 48 h; details: 10 µM unless noted
About 83,000 compounds went through this panel and 20% of them were active in at least one assay; those are over-represented in the sample as a whole. Active and inactive are the calls of the source. How the source made its calls: active means growth percent below 10; inactive means the rest.
Tick one outcome: 1 (yes) (active), 0 (no) (inactive)

CCOc1ncc([N+](=O)[O-])c(OCC)n1	0 (no)
COC(=O)c1c2c(c[n+]([O-])c1C)C(=O)C=C(NCc1ccccc1)C2=O	1 (yes)
COC(=O)Cn1c2c(c3c(OC)cccc31)C(=O)c1ccccc1-2	0 (no)
Clc1ccc(-c2cc(-c3ccccc3)nc(N3CCN(CCCNc4ccnc5cc(Cl)ccc45)CC3)n2)cc1	1 (yes)
Nc1cccc(-c2ccc(COc3ccc(CC4SC(=O)NC4=O)cc3)cc2)c1 (stereo not given)	0 (no)
Cc1cc(NCCCNc2ccnc3cc(Cl)ccc23)nc(Nc2ccc(C(=O)N3CCCCC3)cc2)n1	0 (no)

query: Field: outcome | Entry: `COc1ccc(-c2nc(SCC(=O)Nc3nc4ccc(C)cc4s3)[nH]c(=O)c2C#N)cc1OC`
result: 0 (no)

query: Dear colleague, could you share the recorded outcome for CCCC(O)Cn1ncc(C(=O)OCC)c1NC(=O)NCc1cccc(C(F)(F)F)c1 (stereo not given) when you have a moment?
result: 0 (no)

query: Test call, this compound: `Cc1c(C(C)(C)O)cn2ncnc(Oc3ccc(NC(=O)Nc4ccc(Cl)c(C(F)(F)F)c4)c(F)c3)c12`
result: 0 (no)

query: For `CCOC(=O)/C=C1\S/C(=N\Nc2cc(=O)[nH]c3ccc(Br)cc23)N(c2ccccc2)C1=O` , which call appears in the assay record?
result: 0 (no)

query: For `O=C1NC(=O)C(c2coc3cc(Br)ccc23)=C1c1c[nH]c2ccccc12` , what call appears in the results of this test?
result: 0 (no)

query: For `CN(C)C1CN(C(=O)c2cc(-c3ccc4ncnc(N5CCc6cc(F)c(Cl)cc65)c4c3)cnc2N)C1` , which call appears in the assay record?
result: 0 (no)

query: # outcome recorded in this test, key = `O=S(=O)(N=C1C(Cl)=C(Cl)C(=NS(=O)(=O)c2ccccc2)C(Cl)=C1Cl)c1ccccc1`
result: 0 (no)

query: Which result was noted for this compound in the test: O=C(NCCNC(c1ccccc1)C(NCCNC(=O)c1ccccc1)c1ccccc1)c1ccccc1 (stereo not given)
result: 0 (no)

query: Per the assay record, what outcome was assigned to `Cc1ccc(S(=O)(=O)c2nc(-c3ccccc3)oc2SCC(N)=O)cc1` ?
result: 0 (no)

query: Lab log entry: `Cn1c(=O)[nH]c(=O)c2nc3c(nc21)-c1ccccc1C3=O` — outcome as called in the assay?
result: 0 (no)

query: Just curious, what result did `CCOC(=O)c1cn2ncnc(Oc3ccc(NC(=O)NC4CC4)c(Cl)c3)c2c1C` get here?
result: 0 (no)

query: How did this test come out for `O=C(NCc1ccc(Cn2c(=O)sn(-c3ccccc3)c2=O)cc1)OCc1ccc2cccc(O)c2n1` ?
result: 1 (yes)

query: Field: outcome | Entry: `N=C(N)c1ccc(-c2ccc(-c3cc(Cl)cc(Cl)c3)s2)s1`
result: 1 (yes)

query: Which outcome was entered for the compound `COc1ccc2[nH]cc(-c3nonc3-c3c[nH]c4ccc(Br)cc34)c2c1` in this test?
result: 0 (no)

query: What classification did `O=C1/C(=C/c2ccccn2)SC(=S)N1N1CCOCC1` end up with in this test?
result: 0 (no)

query: Tell me the recorded outcome of this test for `Cc1ccc2c(c1)=C/C(=C\c1cc(-c3ccccc3)[nH]c1O)C(=O)N=2` .
result: 0 (no)

query: Outcome logged for `C#COc1cccc(Nc2ncnc3cc(NC(=O)[C@H](C)Cl)ccc23)c1` in this assay:
result: 1 (yes)

query: Can you look up the reported call for `NCCCNc1nc2ccccc2c2c(=O)c3cc(Cl)ccc3sc12` for me?
result: 1 (yes)

query: Tell me the recorded outcome of this test for `Cn1cc(-c2csc(-c3cn(C)c4ccccc34)n2)c2cnccc21` .
result: 0 (no)

* * *

Readings of growth for the listed compounds
system: MCF7 breast; assay: NCI-60 one-dose screen, 48 h (100 = growth as untreated, 0 = no growth, -100 = all killed); conditions: 10 µM unless noted
This is part of a sample that, as a whole, favours compounds with a hit. Of some 83,000 tested, about 20% had one in any assay. Calls of active or inactive are those of the source. The calls were made as follows: active = growth percent below 10; inactive = the rest.

See these solved cases before continuing.
Cc1cc(C(=O)CCCC(=O)c2cc(C)c(O)c(C)c2)cc(C)c1O	86.5% (inactive)
COC(=O)[C@@]1(C)CC[C@]2(C)CC[C@]3(C)C4=CC=C5C(=CC(=O)C(O)=C5C)[C@]4(C)[C@@H](O)C[C@@]3(C)[C@@H]2C1	17.6% (inactive)
CCOC(=O)c1c(C)nc2c(c1N)C(=O)C(=O)N2Cc1ccc(OC)cc1	18.6% (inactive)
Nc1ncnc2c1N=C(c1ccc(Cl)cc1)CC(c1cccc(Nc3ccnc4cc(Cl)ccc34)c1)N2 (stereo not given)	19.5% (inactive)
COc1cc(/C=C/C(=O)c2cc(OC)c(OC)c(OC)c2)ccc1Oc1nc2c(c(=O)n(C)c(=O)n2C)n1C	0.476% (active)
CN(C)c1ccc(/C=C2\C=C(c3nc4ccccc4s3)OC2=O)cc1	70.8% (inactive)
O=S(=O)(Nc1ccc2ccccc2c1)c1ccc(-c2cnc(C3CC3)o2)cc1	22.1% (inactive)
CC1(C)CC(=O)C2=C(C1)C(c1ccc(Cl)cc1)n1ncc(C#N)c1N2 (stereo not given)	95.4% (inactive)

Per the records, this compound ( `C(=C(\C1=NCCN1)n1ccc2ccccc21)/c1ccccc1` ) has growth equal to 84.5% (inactive)

Per the records, this compound ( `O=C1Nc2ccccc2/C1=N/N1C(=O)CN(CCCl)C1=O` ) has growth equal to 93.8% (inactive)

* * *

tested on: CCRF-CEM leukemia; assay: NCI-60 one-dose screen, 48 h; conditions: 10 µM unless noted
The panel holds about 83,000 compounds, 20% with a hit somewhere; the sample as a whole holds those more often. The source made the active and inactive calls. Rule for the calls: active = growth percent below 10; inactive = the rest.
Would you mind answering with one of these outcomes? yes = active, no = inactive

Some solved entries appear below for comparison.
CN(C)C1CN(C(=O)c2cc(-c3ccc4ncnc(N5CCc6cc(F)c(Cl)cc65)c4c3)cnc2N)C1	no
COc1ccc(/C=C2\c3cc(OC)c(OC)c(OC)c3CC[C@@H]2O)cc1F	no
N#Cc1c(-c2ccccc2)cc(-c2ccccc2)n(CCCCC(=O)NO)c1=O	no
CC(C)c1ccc2c(c1)CC[C@H]1[C@](C)(C(=O)OCC#CCN3CCCC3)CCC[C@]21C	yes
COc1ccc(-c2cc(-c3cn(-c4cccc(Cl)c4)nc3-c3ccc(OC)cc3)on2)cc1	no

query: # outcome recorded in this test, key = `CCN1CCN(CCNc2nccc(-c3c(-c4ccc(F)c(O)c4)nc4occn34)n2)S1(=O)=O`
result: yes

query: For `Cc1cc(N2CCN(CC(=O)Nc3ccc4c(ccn4Cc4ccccc4)c3)CC2)nc(N2CCOCC2)n1` , which call appears in the assay record?
result: yes

query: For `C/C(Cc1ccc(Cl)cc1)=C(\c1ccc(OCCN2CCCCCC2)cc1)c1ccc(OC(=O)c2ccccc2)cc1` , which call appears in the assay record?
result: yes

query: // param item: `CC/C(=C(/c1ccc(O)cc1)c1ccc(OCCN2CCCCC2)cc1)c1ccc(OC)cc1` ; yields the recorded call
result: no

query: Any idea what this test logged for `COc1cccc(CNc2c3ccccc3nc3ccccc23)c1OC` ?
result: no

query: Record request — test call for `CN(C)CCCNC(=O)c1cncnc1Nc1ccc2c(ccn2Cc2cccc(F)c2)c1`
result: no

* * *

test system: UO-31 renal; experiment: NCI-60 one-dose screen, 48 h (100 = growth as untreated, 0 = no growth, -100 = all killed); settings: 10 µM unless noted
This is part of a sample that, as a whole, favours compounds with a hit. Of some 83,000 tested, about 20% had one in any assay.
measured.attribute: growth (%)
Answer format: numeric, % implied, no suffix.

Some solved cases for reference:
Cc1ccc2nc(-c3ccc(C(=O)N/N=C/c4ccc([N+](=O)[O-])cc4)cc3)[nH]c2c1	86.4
CCN(CC)CCn1c2ccc(OC)cc2c2sc3cc(O)ccc3c(=O)c21	23.9
Nc1nc(N(Cc2ccccc2)c2ccccc2)c2cn[nH]c2n1	75
CCOC(=O)C#Cc1c(C(=O)OCC)nnn1[C@@H]1O[C@H](COC)[C@@H](OC)[C@H]1OC	29.2
O=C(C[C@]1(O)C(=O)Nc2ccc(Br)cc21)c1ccco1	75.4
COc1cc(O)c2c(=O)c3c(CC=C(C)C)cc(OC)c(O)c3oc2c1	43.7

The molecule identified as O=C(CN1C(=O)S/C(=C\C(Cl)=C\c2ccccc2)C1=O)NC1CCS(=O)(=O)C1 (configuration not stated) registered its growth at 65.6

Data provenance: PubChem BioAssay (NCI)
